# Assayed Target: T1, human PTEFb (CDK9/Cyclin T1) (Homo sapiens, UniProt P50750)
# T1 construct: purchased ProQinase, Freiburg, Germany
# T1 sequence (P50750 whole entry): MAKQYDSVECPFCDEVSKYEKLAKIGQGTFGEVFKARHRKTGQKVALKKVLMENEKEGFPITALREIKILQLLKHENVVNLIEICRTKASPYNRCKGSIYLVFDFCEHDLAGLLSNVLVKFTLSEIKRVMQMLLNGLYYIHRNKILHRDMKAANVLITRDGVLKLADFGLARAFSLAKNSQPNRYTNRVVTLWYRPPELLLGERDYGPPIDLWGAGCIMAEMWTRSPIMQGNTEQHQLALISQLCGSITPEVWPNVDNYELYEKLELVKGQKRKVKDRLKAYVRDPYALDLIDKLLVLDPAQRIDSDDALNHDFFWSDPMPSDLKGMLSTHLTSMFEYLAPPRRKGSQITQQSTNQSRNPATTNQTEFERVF
# T1 sequence (O60563 whole entry partner): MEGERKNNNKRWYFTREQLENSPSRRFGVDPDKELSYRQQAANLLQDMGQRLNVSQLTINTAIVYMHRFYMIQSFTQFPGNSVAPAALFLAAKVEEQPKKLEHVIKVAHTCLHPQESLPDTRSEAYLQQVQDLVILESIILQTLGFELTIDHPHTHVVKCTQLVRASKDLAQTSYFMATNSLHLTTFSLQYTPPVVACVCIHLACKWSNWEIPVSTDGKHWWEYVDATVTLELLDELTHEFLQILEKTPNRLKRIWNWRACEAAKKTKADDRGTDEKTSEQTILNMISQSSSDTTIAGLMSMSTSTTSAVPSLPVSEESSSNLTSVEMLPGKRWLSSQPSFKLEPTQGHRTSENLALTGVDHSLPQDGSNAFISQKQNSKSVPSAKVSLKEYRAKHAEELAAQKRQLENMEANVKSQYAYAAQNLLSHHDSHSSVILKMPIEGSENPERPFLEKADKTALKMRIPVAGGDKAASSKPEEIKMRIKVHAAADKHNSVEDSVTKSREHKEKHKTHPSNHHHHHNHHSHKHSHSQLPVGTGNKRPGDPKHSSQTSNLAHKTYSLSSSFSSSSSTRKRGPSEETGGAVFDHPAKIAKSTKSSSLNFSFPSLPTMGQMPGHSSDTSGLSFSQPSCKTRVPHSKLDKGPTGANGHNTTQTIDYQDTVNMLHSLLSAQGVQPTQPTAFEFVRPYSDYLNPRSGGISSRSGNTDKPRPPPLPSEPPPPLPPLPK
# Experimental Details: Surface plasmon resonance PTEFb
# Assay type: binding
# Measurement Parameters: SPR, 25° C.; below 5E-5 s^-1 not resolvable; read-out: Dissociation rate constant koff
Observation Type: koff

# get_value(readout= koff, system= T1, human PTEFb (CDK9/Cyclin T1) (Homo sapiens, UniProt P50750)) for C[S+]([O-])Cc1cc2nc(c1)OCCCCOc1cc(F)ccc1-c1cc(ncc1F)N2 (racemic)
< 5e-05 s⁻¹

Can you check CS(=N)(=O)Cc1cc2nc(c1)OCCOc1cc(F)ccc1-c1cc(ncc1F)N2 (racemic) next?
0.0029 s⁻¹

Can you check CSCc1cc2nc(c1)OCCCOc1cc(F)ccc1-c1cc(ncc1F)N2 next?
< 5e-05 s⁻¹
